pKi: −log10 of the molar value. Structures can show the parent of a compound that is named as a salt.
Let's go through some recorded pKi values for CHK1 (kinase domain) (Homo sapiens) together.
outcome-measure: pKi

# molecule, outcome-measure, reported
data = [
    ("C[C@@H]1CNC[C@@H]1Nc1cncc(-c2cnc3cc(Cl)ccn23)n1 [Example 129]", "pKi", 9.03),
    ("Cc1cn2c(-c3cncc(N[C@H]4CNC[C@H]4CF)n3)cnc2s1 [Example 183]", "pKi", 8.27),
    ("NC(=O)c1ccn2c(-c3cncc(N[C@@H]4CCCNC4)n3)cnc2c1 [Example 86]", "pKi", 8.77),
    ("c1ccn2c(-c3cncc(N[C@H]4CCNC4)n3)cnc2c1 [Example 48]", "pKi", 6.78),
    ("C[C@@H]1CC[C@@H](Nc2cncc(-c3cnc4ccc(F)cn34)n2)CN1 [Example 88]", "pKi", 7.04),
    ("c1cnn2c(-c3cncc(NC4CCCCNC4)n3)cnc2c1 (stereo not drawn) [Example 80, acetate salt]", "pKi", 6.00),
    ("CCOc1ccc2ncn(-c3cncc(N[C@H]4CN[C@H](COC)C4)n3)c2c1 [Example 268]", "pKi", 7.18),
    ("c1ccn2ncc(-c3cncc(N[C@@H]4CCCNC4)n3)c2c1 [Example 6]", "pKi", 8.60),
    ("CO[C@H]1CNC[C@H](Nc2cncc(-c3cnc4ccccn34)n2)C1 [Example 156]", "pKi", 7.55),
]

----------
Let's go through some recorded pKi values for CHK1 (kinase domain) (Homo sapiens) together.
pKi: −log10 of the molar value. Where a name gives a salt, the structure may show the parent alone.

# compound, pKi
measured = [
    ("C[C@@H]1CNC[C@@H]1Nc1cncc(-c2cnc3ccccn23)n1", 7.56),
    ("Cc1cn2c(-c3cncc(N[C@@H]4CC[C@@H](C)NC4)n3)cnc2s1 (relative stereo)", 7.42),
    ("COc1ccn2c(-c3cncc(N[C@H]4C5CCN(CC5)[C@H]4C)n3)cnc2c1", 8.27),
    ("C[C@@H]1CNC[C@@H]1Nc1cncc(-c2cnn3ccncc23)n1 [Example 253, acetate salt]", 7.07),
    ("F[C@@H]1CNC[C@@H]1Nc1cncc(-c2cnc3cccnn23)n1 [Example 81, acetate salt]", 6.00),
    ("Clc1cc2c(cn1)ncn2-c1cncc(N[C@@H]2CCNC2)n1", 6.93),
    ("CCc1cn2c(-c3cncc(N[C@@H]4CC[C@@H](C)NC4)n3)cnc2s1", 7.66),
    ("C[C@@H]1NCCC[C@H]1Nc1cncc(-c2cnc3ccc(Cl)cn23)n1", 7.75),
    ("C[C@H]1CC[C@@H](Nc2cncc(-c3cnc4cccnn34)n2)CN1 [Example 83, acetate salt]", 6.00),
    ("N#Cc1ncc(N[C@@H]2CCCNC2)nc1-c1cnc2ccccn12", 6.03),
    ("FC(F)[C@@H]1C[C@@H](Nc2cncc(-c3cnc4cc(C(F)(F)F)ccn34)n2)CN1", 6.58),
    ("CCOc1cc2c(cn1)ncn2-c1cncc(N[C@@H]2CCCNC2)n1", 7.90),
    ("COc1ccc2c(c1)ncn2-c1cncc(N[C@@H]2CCCNC2)n1", 8.62),
    ("COc1ccn2c(-c3cncc(N[C@H]4CN[C@H](COC(C)C)C4)n3)cnc2c1", 7.55),
    ("Cc1ncc(-c2cnc3ccccn23)nc1N[C@@H]1CCCNC1", 7.71),
    ("CO[C@@H]1CCNC[C@H]1Nc1cncc(-c2cnc3ccccn23)n1 [Example 260, (HCl salt)]", 6.63),
    ("CCCOC[C@@H]1C[C@@H](Nc2cncc(-c3cnc4ccccn34)n2)CN1", 7.53),
]

----------
# target-or-system: CHK1 (kinase domain) (Homo sapiens)
pKi: −log10 of the molar value.

# smiles-notation, target-or-system, pKi
measured = [
    ("c1cnn2c(-c3cncc(N[C@@H]4CCCNC4)n3)cnc2c1", "CHK1 (kinase domain) (Homo sapiens)", 6.00),
    ("Cc1ccn2c(-c3cncc(N[C@H]4CN[C@H](COC(C)C)C4)n3)cnc2c1", "CHK1 (kinase domain) (Homo sapiens)", 7.21),
    ("CCc1ccn2c(-c3cncc(N[C@@H]4CCCNC4)n3)cnc2c1", "CHK1 (kinase domain) (Homo sapiens)", 8.15),
    ("CCc1cn2c(-c3cncc(N[C@H]4CCCN[C@@H]4C)n3)cnc2s1", "CHK1 (kinase domain) (Homo sapiens)", 7.77),
    ("C[C@@H]1CNC[C@@H]1Nc1cncc(-n2cnc3cc(-c4cnn(C)c4)ccc32)n1", "CHK1 (kinase domain) (Homo sapiens)", 8.47),
]

----------
# target-or-system: CHK1 (kinase domain) (Homo sapiens, UniProt O14757)
# Construct: a solution containing 1 nM of CHK1 (kinase domain)
# Sequence (O14757 9-265 limits assumed): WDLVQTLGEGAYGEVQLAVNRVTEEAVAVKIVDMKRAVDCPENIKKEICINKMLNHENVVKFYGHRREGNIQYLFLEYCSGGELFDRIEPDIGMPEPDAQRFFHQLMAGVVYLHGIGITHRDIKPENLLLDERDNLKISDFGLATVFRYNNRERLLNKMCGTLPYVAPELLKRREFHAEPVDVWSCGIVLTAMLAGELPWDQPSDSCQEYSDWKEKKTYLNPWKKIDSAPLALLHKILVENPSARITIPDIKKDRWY
# test-method-notes: CHK1 Ki determination, spectrophotometric coupled (pyruvate kinase/lactate dehydrogenase) assay
# Assay type: biochemical
# test-settings: CHK-1 kinase domain; inhibitor concentration not given
Below: a set of entries, each annotated with reported percent inhibition (where no Ki data is available).
outcome-measure: percent inhibition (where no Ki data is available) (%^)

# compound, target-or-system, unit-spec, reported
measured = [
    ("c1cnc2c(-c3cncc(N[C@@H]4CCCNC4)n3)cnn2c1 [Example 23]", "CHK1 (kinase domain) (Homo sapiens, UniProt O14757)", "%^", 36.1),
    ("CCOc1ccc2ncn(-c3cncc(N[C@@H]4CCNC4)n3)c2c1 [Example 219]", "CHK1 (kinase domain) (Homo sapiens, UniProt O14757)", "%^", 48.4),
    ("FC[C@@H]1CNC[C@@H]1Nc1cncc(-c2cnc3sccn23)n1 [Example 182]", "CHK1 (kinase domain) (Homo sapiens, UniProt O14757)", "%^", 98.9),
    ("F[C@H]1CNC[C@@H]1Nc1cncc(-c2cnc3ccccn23)n1 (relative stereo) [Example 46]", "CHK1 (kinase domain) (Homo sapiens, UniProt O14757)", "%^", 29.7),
    ("c1cnc2c(-c3cncc(N[C@@H]4CCNC4)n3)cnn2c1 [Example 121]", "CHK1 (kinase domain) (Homo sapiens, UniProt O14757)", "%^", 16.5),
    ("CC(C)c1cn2c(-c3cncc(N[C@@H]4CCCN[C@H]4C)n3)cnc2s1 [Example 169]", "CHK1 (kinase domain) (Homo sapiens, UniProt O14757)", "%^", 45.9),
    ("CC(C)Oc1ccc2ncn(-c3cncc(N[C@@H]4CCNC4)n3)c2c1 [Example 15]", "CHK1 (kinase domain) (Homo sapiens, UniProt O14757)", "%^", 43.5),
    ("CC(C)Oc1ccc2c(c1)ncn2-c1cncc(N[C@@H]2CCNC2)n1 [Example 222]", "CHK1 (kinase domain) (Homo sapiens, UniProt O14757)", "%^", 42.5),
    ("C[C@H]1NCCC[C@@H]1Nc1cncc(-c2cnc3ccccn23)n1 [Example 132]", "CHK1 (kinase domain) (Homo sapiens, UniProt O14757)", "%^", 18.3),
    ("Cc1ncc(-c2cncc(N[C@@H]3CCCNC3)n2)n1Cc1ccccc1 [Example 72]", "CHK1 (kinase domain) (Homo sapiens, UniProt O14757)", "%^", 1.4),
    ("Cc1ncc(-c2cncc(NC3CCCCNC3)n2)n1C (stereo not drawn) [Example 69]", "CHK1 (kinase domain) (Homo sapiens, UniProt O14757)", "%^", 0.60),
    ("C[C@H]1NCCC[C@@H]1Nc1cncc(-c2cnc3cnccn23)n1 [Example 171]", "CHK1 (kinase domain) (Homo sapiens, UniProt O14757)", "%^", 21.7),
    ("Cc1ncc(-c2cncc(NC3CCCCNC3)n2)n1Cc1ccccc1 (stereo not drawn) [Example 74]", "CHK1 (kinase domain) (Homo sapiens, UniProt O14757)", "%^", 5.8),
    ("c1ccn2c(-c3cncc(N[C@@H]4CCCNC4)n3)nnc2c1 [Example 8]", "CHK1 (kinase domain) (Homo sapiens, UniProt O14757)", "%^", 16.7),
    ("C[C@@H]1NCCC[C@@H]1Nc1cncc(-c2cnc3sccn23)n1 [Example 179]", "CHK1 (kinase domain) (Homo sapiens, UniProt O14757)", "%^", 29.1),
    ("c1ccc2c(c1)ncn2-c1cncc(N[C@H]2CCCNC2)n1 [Example 63]", "CHK1 (kinase domain) (Homo sapiens, UniProt O14757)", "%^", 35.5),
    ("CC(C)c1cn2c(-c3cncc(N[C@H]4CNC[C@H]4CF)n3)cnc2s1 [Example 184]", "CHK1 (kinase domain) (Homo sapiens, UniProt O14757)", "%^", 109),
    ("FC1(F)CCNCC1Nc1cncc(-c2cnc3ccccn23)n1 (stereo not drawn) [Example 11]", "CHK1 (kinase domain) (Homo sapiens, UniProt O14757)", "%^", 101),
    ("c1cc2ncn(-c3cncc(N[C@@H]4CCNC4)n3)c2cc1OCC1CC1 [Example 220]", "CHK1 (kinase domain) (Homo sapiens, UniProt O14757)", "%^", 17.9),
    ("CC(C)(C)CCOc1ccn2c(-c3cncc(N[C@@H]4CCCNC4)n3)cnc2c1 [Example 148]", "CHK1 (kinase domain) (Homo sapiens, UniProt O14757)", "%^", 104),
    ("Cc1cn2c(-c3cncc(N[C@H]4CCCN[C@@H]4C)n3)cnc2s1 [Example 177]", "CHK1 (kinase domain) (Homo sapiens, UniProt O14757)", "%^", 49.1),
    ("Cc1ncc(-c2cncc(N[C@@H]3CCNC3)n2)n1Cc1ccccc1 [Example 75]", "CHK1 (kinase domain) (Homo sapiens, UniProt O14757)", "%^", 6.7),
    ("Clc1ccc2c(-c3cncc(N[C@@H]4CCNC4)n3)cnn2c1 [Example 113]", "CHK1 (kinase domain) (Homo sapiens, UniProt O14757)", "%^", 95.5),
    ("Cc1ncc(-c2cncc(N[C@@H]3CNC[C@@H]3F)n2)n1C [Example 76]", "CHK1 (kinase domain) (Homo sapiens, UniProt O14757)", "%^", 1.6),
    ("C[C@@H]1CNC[C@@H]1Nc1cncc(-c2cnn3cccc(F)c23)n1 [Example 200]", "CHK1 (kinase domain) (Homo sapiens, UniProt O14757)", "%^", 26.1),
    ("Cc1nc2ccccn2c1-c1cncc(N[C@@H]2CCCNC2)n1 [Example 153]", "CHK1 (kinase domain) (Homo sapiens, UniProt O14757)", "%^", 2.2),
]
